- Assayed System: T1, phospholipase A2 (PLA2) from cobra venom (cobra, UniProt P60045 8-126)
- T1 construct: source: purified to homogeneity from cobra venom
- T1 sequence (P60045 8-126): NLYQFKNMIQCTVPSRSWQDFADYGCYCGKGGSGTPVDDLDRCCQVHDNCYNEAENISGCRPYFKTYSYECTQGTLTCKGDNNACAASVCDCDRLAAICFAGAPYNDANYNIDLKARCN
- Method Notes: enzyme kinetic studies (competitive); kinetic studies; the peptide binds to PLA2 in a competitive manner; no conditions told
- Protocol Conditions: both partners purified
Assay Metric: pKi
Please express pKi as -log10 of the molar concentration.

Summary for this binder, VGGVVIA (C-terminal heptapeptide of the Aβ polypeptide of Alzheimer's disease, residues 36-42; numbers count on: the Aβ peptide; also called VGGVVIA; Aβ_(36-42) peptide) [Aβ(36-42) C-terminal heptapeptide Val-Gly-Gly-Val-Val-Ile-Ala] : pKi is 6.28
